From: PubChem BioAssay AID1626

# testMethodNotes: M. tuberculosis H37Rv growth inhibitors, H37Rv strain (AID 1626);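 also: bacteria incubated seven days before Alamar blue readout; 0% = bacteria only wells and 100% = bacteria with antibiotic wells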
# conditionsUsed: stronger effect = higher value, concentration not given here
Hit rate of the full screen: of about 220,000 compounds, about 2,000 (0.91%) were called active. Another 2% or so got no clear call; they are omitted. Not all results are given here. Measured potencies and affinities stand elsewhere.
readout: inhibition

Solved entries (count: 10):
CCSc1ccc(-c2nn(-c3ccccc3)cc2/C=C(/C#N)C(=O)NCCCOC)cc1 :: -5.12% (inactive)
CN(C)S(=O)(=O)N1CCN(c2ccc([N+](=O)[O-])c(N3CCOCC3)c2)CC1 :: 6.14% (inactive)
COc1ccc(-c2ocnc2C(=O)N2CCN(C(c3ccccc3)c3ccccc3)CC2)cc1 :: -4.16% (inactive)
COCCCN(CCC#N)C(=O)c1c(-c2c(Cl)cccc2Cl)noc1C :: -10.4% (inactive)
Cc1c(-c2n[nH]c(=S)n2-c2ccc(Br)cc2)nnn1-c1ccc(Cl)cc1 :: 4.27% (inactive)
COc1cc2[nH]c(=S)nc(NC3CCCC3)c2cc1OC :: 0.6% (inactive)
CN1C(=O)C(=Cc2ccc(N3CCOCC3)o2)C(=O)N(C)C1=O :: 5.8% (inactive)
COc1ccc2c(c1)C1(Nc3ccccc3C(=O)N1c1ccccc1)C(=O)N2 (stereo unspecified) :: -1.38% (inactive)
Cn1c(=O)c2c(nc(N/N=C/c3cccs3)n2Cc2ccccc2)n(C)c1=O :: 3.67% (inactive)
CS(=O)(=O)c1ccc(C(=O)OCC(=O)NC23CC4CC(CC(C4)C2)C3)cc1[N+](=O)[O-] :: 6.01% (inactive)

### Prompt Please report inhibition for the following compound: COc1ccc(/C=N/NC(=O)c2c([N+](=O)[O-])c(C)nn2C)cc1
### Response 1.88% (inactive)

### Prompt Provide only the value of recorded inhibition for N#C/C(=C\c1ccc([N+](=O)[O-])cc1)C(=O)NCCCn1ccnc1
### Response 3.27% (inactive)

### Prompt Hello, please tell me recorded inhibition for this one: O=C(/C=C/c1ccc(Br)cc1)NCc1cccs1
### Response 8.29% (inactive)

### Prompt Give the value of inhibition reported for the following: Cc1nc(N(C)C)c2sc(=S)n(-c3ccccc3)c2n1
### Response 0.72% (inactive)

### Prompt For CC1C(c2ccccc2)C(C#N)(C#N)C2(C#N)C(=O)NC1(N)C2C (stereo unspecified) , write its inhibition.
### Response -0.87% (inactive)

### Prompt Please report the measured inhibition for CCc1ccc(NCc2cc3c(C)nn(-c4ccccc4)c3[nH]c2=O)cc1
### Response 26% (inactive)

----------
# testMethodNotes: M. tuberculosis H37Rv growth inhibitors, H37Rv strain (AID 1626)
# conditionsUsed: stronger effect = higher value, concentration not given here
Hit rate of the full screen: of about 220,000 compounds, about 2,000 (0.91%) were called active. Inconclusive results (about 2%) are left out. The list is a sample of the results. Potency and affinity values are given separately.
readout: inhibition

Worked cases, inhibition given:
C=C(C)C1Cc2c(C)nn(-c3ccccc3)c2C1 (centres undefined) :: 3.68% (inactive)
Cc1ccc(SCc2ccc(C(=O)N3CCCCC3)cc2)cc1 :: 4.74% (inactive)

### Prompt Look up and report measured inhibition for this entry: Cc1ccc(-n2c(O)c(C=NCCN3CCOCC3)c(=O)[nH]c2=O)cc1
### Response 2.96% (inactive)

### Prompt Note inhibition for the compound shown: CCc1nnc(NC(=O)c2cc3c(s2)CCCCC3)s1
### Response -9.6% (inactive)

----------
# testMethodNotes: M. tuberculosis H37Rv growth inhibitors, H37Rv strain (AID 1626);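 also: bacteria incubated seven days before Alamar blue readout; 0% = bacteria only wells and 100% = bacteria with antibiotic wells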
# conditionsUsed: stronger effect = higher value, concentration not given here
About 2,000 (0.91%) of roughly 220,000 compounds were called active. Inconclusive results (about 2%) are left out. A selection follows. Entries with a potency or affinity are not part of this list.
readout: inhibition (%)
A number alone suffices; assume %.

COc1ccc(/C(N)=N/OC(=O)c2ccc3c(c2)OCO3)cc1 :: 3.21

### Prompt Answer with reported inhibition of CC(=O)c1cc(C#N)c(SCc2ccc(F)cc2)nc1C
### Response -3.8

### Prompt Retrieve inhibition measured for Cc1c(CCC(=O)O)c(=O)n2c([nH]c3ccccc32)c1C#N and print it.
### Response -32.2

### Prompt Please supply the value of reported inhibition for the item CCC12CN3CCN(CC(C3)C1O)C2 (stereo not drawn)
### Response -8.91

### Prompt Assign inhibition to the following record: O=C(c1cnc(N2CCN(c3ncccn3)CC2)c2ccccc12)N1CCN(c2ccccn2)CC1
### Response 1.07

### Prompt Dear colleague, please send me the reported inhibition for COc1ccc(C2(C(=O)N3CCCC3)CCOCC2)cc1OC when you can.
### Response -12.9

### Prompt In one line, give reported inhibition of the entry CCOC(=O)c1sc2nc(C)c3c(c2c1N)CC(C)(C)OC3 .
### Response -1.95

----------
# testMethodNotes: M. tuberculosis H37Rv growth inhibitors, H37Rv strain (AID 1626);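 also: bacteria incubated seven days before Alamar blue readout; 0% = bacteria only wells and 100% = bacteria with antibiotic wells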
# conditionsUsed: stronger effect = higher value, concentration not given here
In all, about 220,000 compounds went through this assay and about 2,000 (0.91%) were called active. About 2% were inconclusive and are not listed. A selection follows. Entries with a potency or affinity are not part of this list.
readout: inhibition (%)
Express it in %; write the number only.

Cc1ccccc1NC(=O)C(=O)NCCCN1CCOCC1 :: -3.37
COc1ccc(S(=O)(=O)N=C2C=C(C)C(=O)C(C)=C2)cc1 :: -5.5
O=C(COC(=O)c1ccco1)Nc1nc2ccccc2s1 :: -0.64
Cc1ccc(C(c2nnnn2C(C)(C)C)N2CCN(C3CCCC3)CC2)cc1 (stereo unspecified) :: -4.57
O=C(COC(=O)c1ccc(Br)o1)Nc1nc2ccccc2s1 :: -3.5

### Prompt Recall and state the measured inhibition for Cc1ccc(-c2cc(-c3ccc(C)cc3)[n+](C)o2)cc1 .
### Response -0.95

### Prompt Provide one value: measured inhibition of CCCNC(=O)NC(=O)CSc1ccc2c(c1)OCCO2
### Response 5.15

### Prompt Quick one: give measured inhibition for NNC(=O)c1cnn(-c2ccccc2)c1-n1cccc1
### Response -3.69

### Prompt Return reported inhibition. Input molecule: Cc1cc(NCCCn2ccnc2)n2nc(-c3ccc(F)cc3)cc2n1
### Response -4.87

----------
# testMethodNotes: M. tuberculosis H37Rv growth inhibitors, H37Rv strain (AID 1626);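 also: bacteria incubated seven days before Alamar blue readout; 0% = bacteria only wells and 100% = bacteria with antibiotic wells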
# conditionsUsed: stronger effect = higher value, concentration not given here
About 2,000 (0.91%) of roughly 220,000 compounds were called active. Another 2% or so got no clear call; they are omitted. Only a sample is shown. Measured potencies and affinities stand elsewhere.
Known inhibition of a selection of molecules
Value expressed in %; do not type the unit.

### Prompt Please supply the value of reported inhibition for the item CCNC(=O)N1CCCC(C(=O)c2ccc3cc(OC)ccc3c2)C1 (stereo unspecified)
### Response -5.17

### Prompt Look up and state reported inhibition for O=c1[nH]c(CN2CCOCC2)nc2ccccc12
### Response -6.66

### Prompt Please list inhibition recorded for the molecule CCOC(=O)c1ccc(NC(=O)CNC(=O)c2ccccc2)cc1
### Response 0.26

### Prompt Assign inhibition to the following record: Cc1ccccc1OCc1nnc(SCC(=O)NCc2ccco2)n1C
### Response -6.74

### Prompt Let me know recorded inhibition for Cc1cc(NC(=O)CSc2nnc(-c3ccc(O)cc3)o2)no1 , thanks.
### Response -6.89

### Prompt Check the records and state inhibition for CCC(=O)Nc1nnc(-c2ccccn2)o1
### Response 5.88

### Prompt Give inhibition for Cc1cc(NS(=O)(=O)c2ccccc2)n(-c2ccccc2)n1
### Response -2.44

### Prompt Note down inhibition recorded for COc1ccc(N(C(C)C(=O)Nc2cccnc2)S(C)(=O)=O)cc1 (stereo unspecified)
### Response -6.21

### Prompt Given COc1cccc(/C=C(\C#N)C(=O)NC2CCS(=O)(=O)C2)c1 (stereo unspecified) , respond with its inhibition.
### Response -1.08

### Prompt Give a short answer stating reported inhibition for CCCCc1nc2sc3c(SCC(=O)NCc4ccco4)ncnc3c2c2c1CCC2 .
### Response -4.26

### Prompt Give me measured inhibition, please, for this molecule: COC(=O)c1ccc(C(=O)Nc2nnc(-c3cccnc3)o2)cc1
### Response -5.5

### Prompt Supply reported inhibition belonging to this molecule: COc1ccc(-c2noc(CN3CCCCC3c3nccn3C)n2)cc1 (stereo unspecified)
### Response 6.82

### Prompt Output measured inhibition for this item: CC(=O)c1nnn(-c2ccc([N+](=O)[O-])cc2)c1C
### Response -0.32

### Prompt Answer with reported inhibition of CCC1C(=O)N=C(SCC(=O)Nc2ccc(C(=O)OC)cc2)NC1=O (stereo unspecified)
### Response 8.73

### Prompt Indicate the recorded inhibition value for this molecule: COc1ccc(CNC(=O)C2C3C=CC4(CN(Cc5cccnc5)C(=O)C24)O3)cc1 (stereo unspecified)
### Response -7.2

### Prompt Look up inhibition of O=C(CNS(=O)(=O)c1cccc(Cl)c1)Nc1ccc(-c2nc3ccccc3s2)cc1 and report it.
### Response 1.91

### Prompt Report inhibition for O=C(NCc1ccccc1F)Nc1ccc([N+](=O)[O-])cc1
### Response -8.88

### Prompt Give the measured inhibition for O=C(CCSc1nnc(-c2ccc(O)cc2)o1)N1CCOCC1
### Response -1.1

### Prompt Please supply the value of reported inhibition for the item Cc1ccc(-c2nnc(SCCC(=O)N3CCOCC3)o2)cc1
### Response 77.5

### Prompt Give the measured inhibition for CC1CC1C(=O)OCC(=O)Nc1cccc(S(=O)(=O)NC2=NCCCCC2)c1 (stereo unspecified)
### Response -7.4

### Prompt Input O=C(NCCSCc1c(F)cccc1Cl)c1ccc(CN2CCOCC2)cc1 , output reported inhibition.
### Response 0.75

### Prompt For the molecule N#Cc1ccc(COC(=O)c2ccc3c(=O)[nH]c(CN4CCOCC4)nc3c2)cc1 , give its reported inhibition.
### Response -4.45

### Prompt Using the record for CCCCNC(=O)Nc1cnn(CC)c1C(N)=O , state its measured inhibition.
### Response -2.68
